- System: HS 578T breast
- procedure.text: NCI-60 one-dose screen, 48 h
- assay.setup: 10 µM
About 83,000 compounds went through this panel and 20% of them were active in at least one assay; those are over-represented in the sample as a whole. Calls of active or inactive are those of the source. The calls were made as follows: active = growth percent below 10; inactive = the rest.
Outcome codes: 1 = active, 0 = inactive

compound	cat
COc1ccc(-c2nc(S(=O)(=O)c3ccccc3)c(S(C)(=O)=O)o2)cc1	0
COc1cc2c3c(n(CCCN4CCOCC4)c(=O)c2cc1OC)-c1nc2c(cc1C3=O)OCO2	0
CCC(C)S(=O)(=O)c1oc(-c2ccc(C)cc2)nc1S(=O)(=O)c1ccccc1 (stereo not drawn)	1
O=C(CNc1nc(-c2ccccc2)cs1)Nc1ccc([N+](=O)[O-])cc1	0
Cc1cc(=O)oc2cc(OCCCCOc3ccc(/C=C/C(=O)Nc4ccccc4[N+](=O)[O-])cc3)ccc12	0
C[C@H]1[C@H](C)CC[C@]2(COC(=O)CCC(=O)NCC#CCN3CCNCC3)CC[C@]3(C)C(=CC[C@@H]4[C@@]5(C)CCCNC(C)(C)[C@@H]5CC[C@]43C)[C@H]12	0
CC1=C(c2cc(-c3ccc(Cl)cc3)c(C#N)c(N)n2)C(c2ccccc2)NC(=S)N1 (stereo not drawn)	0
CN1CCN(c2ccc(Nc3nc(NCCCNC(=O)c4ccc(Cl)cc4)c4sccc4n3)cc2)CC1	0
